Test system: HOP-62 complex spheroids with HUVEC/MSC, viability
assayMethodText: Anticancer human tumor HOP-62 cell line growth inhibition [RAS];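 note: spheroids exposed to agents for seven days before readout; 100% = DMSO vehicle control viability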
conditionInfo: second compound 0.0949 µM; first compound 0.0316 µM; stronger effect = lower value
Description: RAS pathway inhibitors in Combinations in Complex Spheroids A high-throughput screen of multi-cell type tumor spheroids was designed to identify active combinations of RAS pathway inhibitors and targeted small molecules. Complex spheroids include a stromal component modeled by human endothelial cells (HUVEC) and fibroblasts modeled by human mesenchymal stem cells (MSCs). […] Compounds. […] If the clinical Cmax for an agent had not been determined, the highest concentration tested was 10 microM. […]
measurementType: viability, T/C (%)
Please reply with the bare figure in % and do not write the unit itself.

CC(Nc1ccc2c(c1)OCCn1cc(N3C(=O)OCC3C(F)F)nc1-2)C(N)=O (centres undefined) + CCn1c(-c2cc(N3CCN(C)CC3)cnc2C(C)OC)c2c3cc(ccc31)-c1csc(n1)CC(NC(=O)C1CC1C)C(=O)N1CCCC(N1)C(=O)OCC(C)(C)C2    27.1

Test system HOP-62 complex spheroids with HUVEC/MSC, viability; read-out viability, T/C; what value for Cc1nc(N2CCC3(CC2)COC(C)C3N)c(CO)nc1Sc1ccnc(N)c1Cl (centres undefined) + CCn1c(-c2cc(N3CCN(C)CC3)cnc2C(C)OC)c2c3cc(ccc31)-c1csc(n1)CC(NC(=O)C1CC1C)C(=O)N1CCCC(N1)C(=O)OCC(C)(C)C2 ?
37.9

// map CC(=O)OC12COC1CC(O)C1(C)C(=O)C(O)C3=C(C)C(OC(=O)C(O)C(NC(=O)OC(C)(C)C)c4ccccc4)CC(O)(C(OC(=O)c4ccccc4)C21)C3(C)C (centres undefined) + CCn1c(-c2cc(N3CCN(C)CC3)cnc2C(C)OC)c2c3cc(ccc31)-c1csc(n1)CC(NC(=O)C1CC1C)C(=O)N1CCCC(N1)C(=O)OCC(C)(C)C2 to recorded viability, T/C (system: HOP-62 complex spheroids with HUVEC/MSC, viability)
32.3

Lab note: need viability, T/C for O=C(c1ccc(F)c(F)c1Nc1ccc(I)cc1F)N1CC(O)([C@@H]2CCCCN2)C1 + CCn1c(-c2cccnc2C(C)OC)c2c3cc(ccc31)N1CCOC(CC(NC(=O)C(C(C)C)N(C)C(=O)C3(F)CCN(C(=O)C#CC(C)(C)N(C)C)CC3)C(=O)N3CCCC(N3)C(=O)OCC(C)(C)C2)C1 on HOP-62 complex spheroids with HUVEC/MSC, viability, anyone have it?
72.2
